test system: K4 kissing-loop RNA reporter; assay: apparent KD of K4 kissing-loop reporter; higher = weaker reporter binding; conditions: Eterna round: R107; input ligand: none;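 further: bound reporter read as fluorescence of individual clusters on recovered sequencing chips by microscopy, with normalized cluster intensities fitted with a binding model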
METRIC_NAME: apparent KD of K4 kissing-loop reporter (µM)
Kindly provide the numeric value in µM only, without the unit symbol.

Lookup result for UUUCCAGAUAAGUGGGAACGCUCCAUAACAGAGGAUAUCAGAGCGCUGAGAAGGCUGUUUUACAGUGAUGUUGUAAGUGUGGAGC [#10 K4 FMN A Same State] ; measured apparent KD of K4 kissing-loop reporter: 0.299

Lookup result for AAGGGCGGAACAACCUCGCCGGAUAGAGAUACCAGCCCAGCAAUGGGCCCUUGGCAGCUCACUGACCUCAGUGAUGUUGAGGUUC [Laar] ; measured apparent KD of K4 kissing-loop reporter: 0.248

Lookup result for UGAUACCAGACUGAUACCAGCAAGUGAUGUUUGUUGAUCAAAAGCAGUCAAAGACUGCUUUGCCCUUGGCAGCAGUCUGGUAUCU [#10 K4 Theophylline B Exclusion] ; measured apparent KD of K4 kissing-loop reporter: 0.166

Lookup result for AUUUAGACGAGUGAUGUUCGUGUUUUUUCAGAGGAUAUGCGUAAUUGCAGAAGGCUGUAUUUAUAUAUGUUUUGUUUUUUUAAAA [JR_ExcFMNA_Sub008] ; measured apparent KD of K4 kissing-loop reporter: 0.0754

Lookup result for CAACGAGUGAUGGUCGUUGACGGCCAUCCCGAGGAUAUGGGAUUUUCCAGAAGGCGGGAUCGCCCGGAGUGAUGUUCCGUGAUUU [Same State FMN A GF 15] ; measured apparent KD of K4 kissing-loop reporter: 0.15

Lookup result for AUAGCUGAUAGCAGUGAUGUUGCUUCAGAUACCAGACGAGAUCAUGUCCCUUGGCAGCUGACAUGGCAAGUGCUAGGUUAGAUGA [#11 K4 Theophylline A Exclusion] ; measured apparent KD of K4 kissing-loop reporter: 0.125
